Entry source: paper PMC4570195

- TARGET DESC: T1, KI (N-terminal acetylation)
- T1 construct: de novo designed 28-residue coiled coil peptide, four heptads (gabcdef); also called KI peptide; source: synthetic peptide (solid phase, Fmoc), purified by reverse phase HPLC
- T1 peptide: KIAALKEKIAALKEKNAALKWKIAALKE
- TEST DESCRIPTION: circular dichroism, thermal denaturation; Kd at 75 °C, as used for the self-sorting simulations
- CONDITION NOTES: both partners purified
pKd: −log10 of the molar value.
MEASURED ATTRIBUTE: pKd

Kindly indicate its recorded pKd. Item: Ac-EVSALEKEVSALEKENSALEWEVSALEK-NH2 (de novo designed 28-residue coiled coil peptide, four heptads (gabcdef); also called EV peptide; source: synthetic peptide (solid phase, Fmoc), purified by reverse phase HPLC) [EV]
< 6.70
